# Tested on: Poria
# PROTOCOL_SUMMARY: Antifungal activity against Poria placenta FPRL 280 assessed as mycelial growth inhibition at 0.75 x 10^-4 mol/ml after 9 days relative to control
# Format: functional
Note: every record was labeled by where its growth inhibition (GI) sits among band A (below 50%), band B (50% to below 80%), band C (80% or more)

Illustrative cases are given below, each with its answer.
| COMPOUND | ASSIGNED_CLASS |
| --- | --- |
| CCN[C@H]1C(O)O[C@H](CO)[C@@H](O)[C@@H]1O (stereo partly specified) | band A |
| CC(=O)OC[C@H]1OC(OC(C)=O)[C@H](NC2CCCCC2)[C@@H](OC(C)=O)[C@@H]1OC(C)=O (stereo partly specified) | band C |
| N[C@H]1[C@H](O)[C@@H](CO)OC(O)[C@@H]1O (stereo partly specified) | band A |
| NC[C@H]1O[C@@H](O)[C@H](O)[C@@H](O)[C@@H]1O | band A |
| CC(=O)OC[C@H]1OC(OC(C)=O)[C@H]([N+](C)(C)C)[C@@H](OC(C)=O)[C@@H]1OC(C)=O (stereo partly specified) | band B |
| CC(=O)OC[C@H]1OC(OC(C)=O)[C@H]([N+](C)(C)C2CCCCC2)[C@@H](OC(C)=O)[C@@H]1OC(C)=O (stereo partly specified) | band C |
| CC[N+](C)(C)[C@H]1C(O)O[C@H](CO)[C@@H](O)[C@@H]1O.O=S(=O)([O-])O (stereo partly specified) | band B |
| N[C@H]1C(O)O[C@H](CO)[C@@H](O)[C@@H]1O (stereo partly specified) | band A |

Just checking, what class would you give CC(=O)OC[C@H]1OC(OC(C)=O)[C@H](N(C)C)[C@@H](OC(C)=O)[C@@H]1OC(C)=O (stereo partly specified) here?
band A

Field: class (growth inhibition (GI)) — entry: "N[C@@H]1O[C@H](CO)[C@@H](O)[C@H](O)[C@H]1O"
band C
